- System: SW 1573
- assay-method-text: relative viability (nuclei count vs DMSO), 5 days (fraction); higher = more cells survive
- measurement-context: first compound 0.6325 µM
Task for the reader: assign each of the following molecules its reported relative viability.
Reply with the value as a number alone.

IN: Quick one: relative viability for CN1CCN(CCOc2cc(OC3CCOCC3)c3c(Nc4c(Cl)ccc5c4OCO5)ncnc3c2)CC1 [Saracatinib] + COc1cccc2cc(-c3nc([C@H]4CC[C@H](C(=O)O)CC4)n4ncnc(N)c34)[nH]c12 [OSI-027] (partner 0.5 µM) ?
OUT: 0.667

IN: Next entry: Cc1csc(=NC2CCCCC2)n1/N=C/c1ccc(O)c(O)c1O [MIM1] + COc1cccc2cc(-c3nc([C@H]4CC[C@H](C(=O)O)CC4)n4ncnc(N)c34)[nH]c12 [OSI-027] (partner 0.5 µM)
OUT: 0.724

IN: Next entry: CN1CCN(CCOc2cc(OC3CCOCC3)c3c(Nc4c(Cl)ccc5c4OCO5)ncnc3c2)CC1 [Saracatinib] + Cc1nc(Nc2ncc(C(=O)Nc3c(C)cccc3Cl)s2)cc(N2CCN(CCO)CC2)n1 [Dasatinib] (partner 0.075 µM)
OUT: 0.489

IN: Next entry: CN1CCN(CCOc2cc(OC3CCOCC3)c3c(Nc4c(Cl)ccc5c4OCO5)ncnc3c2)CC1 [Saracatinib] + O=C(c1cc(Cc2n[nH]c(=O)c3ccccc23)ccc1F)N1CCN(C(=O)C2CC2)CC1 [Olaparib] (partner 8 µM)
OUT: 0.448

====

- System: NCI-H1915
- assay-method-text: relative viability (nuclei count vs DMSO), 5 days (fraction); higher = more cells survive
- measurement-context: first compound 0.8 µM
Task for the reader: assign each of the following compounds its reported relative viability.

IN: Quick one: relative viability for Nc1cccc2c1CN(C1CCC(=O)NC1=O)C2=O (stereo not drawn) [Lenalidomide] + Cc1nc(NC(=O)N2CCC[C@H]2C(N)=O)sc1-c1ccnc(C(C)(C)C(F)(F)F)c1 [Alpelisib] (partner 2 µM) ?
OUT: 1.07

IN: Next entry: Nc1cccc2c1CN(C1CCC(=O)NC1=O)C2=O (stereo not drawn) [Lenalidomide] + Nc1nc2[nH]cc(CCc3ccc(C(=O)N[C@@H](CCC(=O)O)C(=O)O)cc3)c2c(=O)[nH]1 [Pemetrexed] (partner 0.2 µM)
OUT: 0.515

IN: Next entry: Nc1cccc2c1CN(C1CCC(=O)NC1=O)C2=O (stereo not drawn) [Lenalidomide] + CC(C)C[C@H](NC(=O)[C@H](Cc1ccccc1)NC(=O)c1cnccn1)B(O)O [Bortezomib] (partner 0.002 µM)
OUT: 0.69

====

Task for the reader: assign each of the following compounds its reported relative viability.
- Test system: NCI-H1975
- assay-method-text: relative viability (nuclei count vs DMSO), 5 days (fraction); higher = more cells survive
- measurement-context: first compound 0.03162 µM
Reply with the value as a number alone.

IN: Provide value of relative viability for this record tested with NCI-H1975: Cc1cn(-c2cc(NC(=O)c3ccc(C)c(Nc4nccc(-c5cccnc5)n4)c3)cc(C(F)(F)F)c2)cn1 [Nilotinib] + C[C@]1(O)C[C@@H](c2nc(-c3ccc4ccc(-c5ccccc5)nc4c3)c3c(N)nccn32)C1 [Linsitinib] (partner 1 µM)
OUT: 0.688

IN: Next entry: Cc1cn(-c2cc(NC(=O)c3ccc(C)c(Nc4nccc(-c5cccnc5)n4)c3)cc(C(F)(F)F)c2)cn1 [Nilotinib] + NC(=O)Nc1cc(-c2cccc(F)c2)sc1C(=O)N[C@H]1CCCNC1 [AZD7762] (partner 0.2 µM)
OUT: 0.613

IN: Next entry: Cc1cn(-c2cc(NC(=O)c3ccc(C)c(Nc4nccc(-c5cccnc5)n4)c3)cc(C(F)(F)F)c2)cn1 [Nilotinib] + CS(=O)(=O)CCNCc1ccc(-c2ccc3ncnc(Nc4ccc(OCc5cccc(F)c5)c(Cl)c4)c3c2)o1 [Lapatinib] (partner 2 µM)
OUT: 0.658

IN: Next entry: Cc1cn(-c2cc(NC(=O)c3ccc(C)c(Nc4nccc(-c5cccnc5)n4)c3)cc(C(F)(F)F)c2)cn1 [Nilotinib] + O=C(CCCCCCC(=O)Nc1ccccc1)NO [Vorinostat] (partner 1 µM)
OUT: 0.489
